assay: yeast display, Sf9 membrane polyspecificity reagent, FACS + sequencing; frameworks hold sequencing errors
readoutLabel: polyreactivity (PSR sort gate)

- QVQLVESGGGLVQAGGSLRLSCAASGSIFGRNAMGWYRQAPGKERELVAAINYSGTSTYYADSVKGRFTISRDNAKNTVYLQMNSLKPEDTAVYYCAKARHKSPTYTHDSWGQGTQVTVSS: high polyreactivity
- QVQLVESGGGLVQAGGSLRLSCASSGFIFSTSALGWYRQAPGKERELVAAISRTGGSTYYADSDKGRFTISRDNANNTVYLQMNSLKPEDTAVYYCAAAIYSFWYEYNYWGHGTQVTVSS: high polyreactivity
- QVHLVESGGVLVQAGGSLRLSCAASAGNFDTYAMGRYRQAPGKEREMVADITWSGGSTYYADSVKGRFTISRDNAKNTVYLQMNSLKPEDTAVYYCNADDPSKLGYEPDYWGQGTQVTVSS: low polyreactivity
- QVQLVESGGGLVQAGGSLRLSCAASGNIFSYYAMGWYRQAPGKERELVAAIYTGGSTYYADSVKGRFTISRDNAKNTVYLQMNSLKPEDTEVYYCAASGLNLRQDYDYWGQGTQVTVSS: low polyreactivity
- QVQLVESGGGLVQAGGSLRLSCAASGIILIQNSMGWSRHAPGKERELVAAISTRGGRTYYADSVKGRFTISRDNAKNTVYLQMNSLKPEDTAVYYCAAYRTTPYRDYKMDYWGQGTQVTVSS: high polyreactivity
- QVQLVESGGGLVQAGGSLRLSCAASGRTFGINAMGWYRQAPGKERELVADITDSGVSTYYADSVKGRFTISRDNAKNTVYLQMNSLKPEDTAVYYCNTGSYLFFLYGDDYWGQGTQVTVSS: low polyreactivity
- QVQLVESGGGLVQAGGSLRLSCAASGGTFRVYAMGWYRQAPGKERELVAAISGGGRTYADSVKGRFTISRDNAKITVYLQMNSLKPEDTAVYYCNTRRYYRVTTVKRYDYWGQGTQVTVSS: high polyreactivity
- QVQLVESGGGLVQAGGSLRLSCAASGITFYIKAMGWYRQAPGKERELVAVIDSRGSSTFYADSVKGRFTISRDNAKNTVYLQMNSLKPEDTAVYYCAVEGYPGRYRDPGDLYYYWGQGTQVTLSS: low polyreactivity
- QVQLVESGGGLVKAGCSLRLICAASGSIFYQYAMGWNRQAPGNVRELVAAITRRGSRTYYADSVKGRFTISRDNAKNTVYLQMNSLKPEDTAVYYCAAGSFYGIYYYRTDDYWGQGTQVTVSS: high polyreactivity
- QVQLVESGGGLVQAGGSLRLTCAASGSTFYVYAMGWYRQAPGKERELVAAIDDSGDRTYYADSVKGRFTISRDNAKNTVYLQMNSLKPEDTAVYYCAAEYDSWEYDYWGQGTQVTVSS: low polyreactivity
- QVQLVESGGGLVQAGGSLRLSCAASGSTFRYNAMGWYRQAPGKERELVAAITSGGGTNYADSVKGRFTISRDNAKNTVYLQMNSLKPEDTAVYYCAAGAWRGPYSGYYYWGQGTQVTVSS: low polyreactivity

----------
assay: yeast display, Sf9 membrane polyspecificity reagent, FACS + sequencing; frameworks hold sequencing errors
readoutLabel: polyreactivity (PSR sort gate)

* QDQHVESGGGLVQARGSLRLSCAASGRIFANKAMGRYRQAPGKERELVAAISRSGVSTYYADSVKGRFTISRDNAKNTVYLQMNSLKPEDSAVYYCAARWRSGFTSGDDWGQGTQVTVSA | low polyreactivity
* QVQLVESGGGLVQAGGSLRLSCAASGRTFRRYAMGWYRQAPGKERELVAASSRGANTNYADSVKGRFTISRDNAKNTVYLQMNSLKPEDTSVYYGNAYGIDTGDYWGQGTKVTVSS | high polyreactivity
* QVQLVESGGGLVQAGGSLRLSCAASGRIFWRYAMGWYRQAPGKERELVAAISSGGSTTYADSVKGRFTISRDNAKNTVYLQMNSLKPEDTAVYYCNARQYTRPYAFDYWGQGTQVTVSS | low polyreactivity
* QVQLVESGGGLVQAGGSLRLSCASSGFTFRLNAMGWYRQAPGKERELVAAITRSGGNTYYADSVKGRFTISRDNAKNTVYLQMNSLKPEDTAVYYCAVRQLDRRSPKYNYWGQGTQVTVSS | high polyreactivity
* QVQLLESGGGLVQAGGSLRLSCAASGSTLLQYAMGWYRQAPGKEREFVAAISASGARTYYADSVKGRFTISRDNAKNTVYLQMNSLKPEETAVYYCAALTQRSSFDYWGQGTQVTVSS | high polyreactivity

----------
test: yeast display, Sf9 membrane polyspecificity reagent, FACS + sequencing; frameworks hold sequencing errors
readoutLabel: polyreactivity (PSR sort gate)

• QVQLVESGGGLVQAGGSLRLSCAASGSTSRTYAMGWYRQAPGKERELVAAINSGGTTYYADSVKGRFTISRDNAKNTVYLQMNSLKPEDTAVYYCARRDFWWSRRIFGYWGQGTQVTVSS = high polyreactivity
• QVQLVESGGGLVQAGGSLRLICAASGRIFVGNTMGWYRQAPGKERELVAAITSSGGSTYYADSVKGRFTISRDNAKNTVYLQMNSLKPEDTAVYYCAARTREYQWRYYYWGQGTQVTVSS = high polyreactivity

----------
assay: yeast display, Sf9 membrane polyspecificity reagent, FACS + sequencing; frameworks hold sequencing errors
readoutLabel: polyreactivity (PSR sort gate)

- QVQLVESGGGLVQAGGSLRLSCAASGRTISHNVMGWYIKAPGKERELVAAISRNGGRTYYADSVKGRFTISRDNAKNTVYLQMNSLKPEDTAVYYCAKRRSYFLHSYYSYGYWGQGTQVTVSS: high polyreactivity
- QVQLVESGGGLVQAGGSLRLSCAASGSIFRRYTMGWYRQAPRKERELVAAISRVGNTNYADSVKGRFTISRDNAKNTVYLQLNSLKPEDTAVYYCAARGIGYRYTPGLNYWGQGTQVTVSS: high polyreactivity
- QVQLVESGGGLVQAGGSLRLSCSASGSTFSENAMGWYRQAPGKERELVAAISWGGGSTYYADSVKGRFTISRDKAKNTVYLQMNSLKPEDTSVYYCNADVFDDYCDFESDDWGQGTQVTVSS: low polyreactivity
- QVQHVESRGGLVQAGGSLRLSCAASGRTFSRNAMGRYRQAPGKERELVATITSDGSTNYADSVKGRFTISRDNAKNTVYLQMNSLKPEDTAVYYCAAGEQSSIIGAHDYWGQGTQVTVSS: low polyreactivity
- QVHLVESGGGLVQAGGILRLSCAASGLTFRYYTMGWYRQEPGKERELVASITIRGGSTYYADSVKGRFTISRDNAKNTVYLQMNSLKPEDTAVYYCNTRYGFSFGYWGQGTQVTVSS: high polyreactivity
- QVQLVESRGGLVQAGGSLRLSCAASGMTFSDYPMGLYRQAPGKEREFVSAITSGGRTNYADSVKGRFTISRDNAKNTVYLQMNSLKPEDTAVYYCAAVYTYVYYYHYPYYYWGQGTQVTVSS: low polyreactivity
- QVQLVESGGGLVQAGGSLRLSCAASGSTFYQYAMGWYRQAPGKERELVAAISKSGGSTYYADSVKGRFTISRDNAKNTVYLQMNSLKPEDTAVYYCATRWIKGRNMDYWGQGTQVTVSS: high polyreactivity
- QVHLVDSGGGLVQAGGSLRLSCAASGRTFYSYAMGWYRQAPGKERELVAAINSGGDTYYADSVKGRFTISRDNAKNSVYLQMNSLKPEDTAVYYCAADYYWEMDSWGQGTQVTVSS: low polyreactivity
- QVQLVESGGGLVQAGGSLRLSCAASGFTFIRNAMGWYRQAPGKERELVAAISKRGGSTNYADSVKGRFTISRDNAKNTVYLQMNSLKPEDTAVYYCAAGGQVAWLDYYPMDYWGQGTQVTVSS: low polyreactivity
- QVHLVESGGGLVQAGGSLRLSCAASGSTIDIYDMGWYRQAPGKERELVAAISIGTYADSVKGRFTISRDNAKNTVYLQMNSLKPEDTAVYYCAAQTDTWGYGYDYWGQGTQVTVSS: high polyreactivity
- QVQLVESGGGLVQAGGSLRLSCAASGIIFQYYAMGWYRQAPGKERELVAAISWSGGSTYYADSVKGRFTISRDNAKNTVYLQMNSLKPEDTAVYYCAARSRSYWPYEGDYWGQGTQVTVSS: low polyreactivity
- QVQLVESGGGLVQAGGSLRLSCAASGSTFYDNAMGWYRQAPGKERELVAAIDGGDTYYADSVKGRFTISRDNAKNTVYLQMISLKPEDTAVYYCAAESLPEISVGLGYWGQGTQVTVSS: low polyreactivity
- QDQLVESGGVLVQAGGSLRLSCAASGRIFVYNAMGWYRQAPGKERELVATIDYSGGSTYYADSVKGRFTNSRDYAKNTVYLQINSLKPEDPAVYYCNADWSVYAYDSWGQGTQVTVSS: low polyreactivity
- QVQLVESGGGLVQAGGSLRLSCAASGGTFSYNAMGWYRQAPGKERELVAAISWSGTRTYYADSVKGRFTISRDNAKNTVYLQMNSLKPEDTAVYYCNKPPPNRGRYDYWGQGTQVTVSS: low polyreactivity
- QVQLDESGGGLVQAGGSLRLRCAASGFIFVSYAMGWYRQAPGKERELVAAISRGGGSTYYADSVKGRFTISRDNAKNTVYLQMNSLKPEDTAVYYCAAGRFYIDDYWGQGTQVTVSS: high polyreactivity
- QVQLVESGGGLVQAGGSLRLSCAASGLSSLRMLWDGIDRRLGKKGSWLPLITSGGDSTNYADSVKGRFTISRDNAKNTVYLQMNSLKPEDTAVYYCAADLDYPYGYWGQGTQVTVSS: low polyreactivity
- QDQLVESGACLVQAGGRLRLSCAASGFTFYYNAMGWYRQAPGKEREFVAAISRSGGSTTYADSVKGRFTISRDNAMNTGFLEMNSLKPEDTAVYYCNARRYRCKSYDYWGQGTQVTVSS: high polyreactivity
- QDQLVESGGGLVQAGGSLRLSCAASGFTFTRYAMGWYRQAPGKERELVAAITQRGGSTYYADSVKGRFTISRDNAKNTVYLQMNSLKPEDTAVYYCAAVQTRRWYGYLYNYWGQGTQVTVSS: high polyreactivity
- QVQLVESGGGLVQAGCSLRLSCAASGSIFGYNDMGWNRQAPGKERELVATITWGGGRTRYADSVKGRFTISRDNAKNTVYLQINCLKPEDIAVYYCAADKRSYSYVRPPRNHEDYWGQGSQVTVSS: low polyreactivity
- QVQLVESGGGLVQAGRSLRLSCAASGSTFWFYAMGWYRQAPGKERELVASINSGGSTYYADSVKGRFTISRDNAKNTVYLQMNSLKPEDTAVFYCAADAYSWWGRWERYPYTTMYYWGQGTQVTVSS: low polyreactivity
- QVQLVESGGGLVQAGGSLRLSCAASGRIFSSNAMGWYRQAPGTERELVASLSSTGSPKYADSVKGRFTISRDNAKNTVYLQMNSLIPEDTAVYYCAATQVRRGPAWGRDYWGQGTQVTVSS: low polyreactivity
